Exercise: state measured pIC50 for each of the compounds provided.
# SYSTEM NAME: c-Cbl (Homo sapiens (Human), UniProt P22681)
# Sequence (P22681 47-435): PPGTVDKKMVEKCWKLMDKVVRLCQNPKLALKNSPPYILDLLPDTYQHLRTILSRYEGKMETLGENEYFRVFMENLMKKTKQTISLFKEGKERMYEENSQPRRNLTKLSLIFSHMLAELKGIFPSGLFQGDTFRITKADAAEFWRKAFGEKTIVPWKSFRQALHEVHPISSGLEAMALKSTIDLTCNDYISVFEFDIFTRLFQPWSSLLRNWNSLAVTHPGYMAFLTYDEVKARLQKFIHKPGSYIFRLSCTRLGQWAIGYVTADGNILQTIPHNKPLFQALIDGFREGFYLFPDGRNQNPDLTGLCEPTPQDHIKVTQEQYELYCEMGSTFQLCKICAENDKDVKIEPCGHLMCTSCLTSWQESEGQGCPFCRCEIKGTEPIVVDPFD
# ASSAY TEXT: C-Cbl LCK Ub TR-FRET assay (c-cbl Lck HTRF)
# Assay type: biochemical
Structures can show the parent of a compound that is named as a salt.
Please treat pIC50 as minus the base-10 logarithm of the molar concentration.

State the recorded pIC50 for this entry: CNc1cc(C2(Cc3nncn3C)CCC2)cc(N2Cc3c(cc(CNC4(C)CCC4)cc3C(F)(F)F)C2=O)n1 [Compound 310, formate]
7.96

Please answer likewise for "Cn1cnnc1[C@@H](F)C1(c2cccc(N3Cc4c(cc(CN5CC6CC5C6)cc4C(F)(F)F)C3=O)c2)COC1"
5.51

Please answer likewise for "Cn1cnnc1[C@@H](F)C1(c2cccc(N3Cc4c(cc(CN5CCOCC5)cc4C(F)(F)F)C3=O)c2)COC1"
6.14

Please answer likewise for CCOc1cc(C2(Cc3nncn3C)CCC2)cc(N2Cc3c(cc(CNC4(C)CCC4)cc3C(F)(F)F)C2=O)n1 [Compound 359]
8.28

Please answer likewise for "Cn1cnnc1CC1(c2cc(OCc3ccccc3)nc(N3Cc4c(cc(CNC5(C)CCC5)cc4C(F)(F)F)C3=O)c2)CCC1"
7.77

Please answer likewise for "Cn1cnnc1[C@H](F)C1(c2cccc(N3Cc4c(cc([C@@H](N)C5CC5)cc4C(F)(F)F)C3=O)c2)COC1"
7.20

Please answer likewise for "Cn1cnnc1CC1(c2cccc(N3Cc4c(cc(CN)cc4C(F)(F)F)C3=O)c2)CC(F)(F)C1"
7.29

Each recorded value in this set is attributed to patent US20250230147A1.
